Assay: Saturation solubility of Gemcitabine free base in various solvents
Format: physicochemical
Conditions: solketal, organic solvent or mixture, thermodynamic from solid, saturation solubility in Solketal
Reported Endpoint: solubility (mg/mL)

> print(dat)
                                   compound  units.text  readout.value
1  Nc1ccn([C@@H]2O[C@H](CO)[C@@H](O)C2(F)F)c(=O)n1 [Gemcitabine free base, Gemcitabine]       mg/mL           17.7

====

Assay: Saturation solubility of Gemcitabine free base in various solvents
Format: physicochemical
Details: water, thermodynamic from solid, saturation solubility in Water
Reported Endpoint: solubility (mg/mL)

> print(dat)
                                   compound  reported.endpoint  units.text  readout.value
1  Nc1ccn([C@@H]2O[C@H](CO)[C@@H](O)C2(F)F)c(=O)n1 [Gemcitabine free base, Gemcitabine]         solubility       mg/mL           21.8
